system: HCT-15
readout_kind: GI50 (µM)
Give the value in µM but do not write µM after it.

Incoming: Value lookup for GI50; key = Cn1c(=O)c2c(nc3n(CC(O)CCl)c(=O)ccn23)n(C)c1=O (stereo not given)
Outgoing: 34.9

Incoming: Value lookup for GI50; key = CC(C)c1ccc(/C=C2\CSCC3=C2N=C(S)NC3c2ccc(C(C)C)cc2)cc1 (stereo not given)
Outgoing: 89.5

====

system: K562; assay: NCI tumour cell line growth inhibition, 48 h
Calls of active or inactive are those of the source. Rule as the data show it: active = GI50 up to about 1.1 µM and inactive = higher.
readout_kind: GI50

> print(dat)
                                   compound  tested.on  experimental.value
1  COc1ccc(/C(=N/N=c2\[nH]c3ccccc3n2Cc2ccccc2)C(=O)O)cc1       K562  22.7 µM (inactive)
2  Cn1/c(=N\N=C(\CNCCO)[C@@H](O)[C@@H]2OC(c3ccccc3)OC[C@H]2O)sc2ccccc21 (stereo not given in full)       K562  14.8 µM (inactive)
3     C=CCC1(O)c2cccc(O)c2C(=O)c2c(O)cccc21       K562    21 µM (inactive)
4  S=C(N/N=C(/c1ccccc1)c1ccccn1)Nc1ccc(Cl)cc1       K562  < 0.01 µM (active)

Incoming: Value lookup for GI50; key = `COn1oc(=O)c2ccccc21`
Outgoing: > 100 µM (inactive)

Incoming: Value lookup for GI50; key = `CC(C)=C1C(=O)C[C@]2(C)C[C@H]3O[C@]3(C)CC[C@@H]3O[C@@]3(C)CC[C@@H]12`
Outgoing: 44.3 µM (inactive)

Incoming: Value lookup for GI50; key = Cn1c2c(c3ccccc31)CC1c3c(c4ccccc4n3C)CC21 (stereo not given)
Outgoing: > 100 µM (inactive)

Incoming: Value lookup for GI50; key = `O=C1/C(=C/c2cccc([N+](=O)[O-])c2)N=C(c2ccccc2)N1c1ccc2c(c1)Sc1cc(N3C(=O)/C(=C/c4cccc([N+](=O)[O-])c4)N=C3c3ccccc3)ccc1N2`
Outgoing: 27.3 µM (inactive)

Incoming: Value lookup for GI50; key = `O=c1[nH]n(Cc2ccccc2CCl)c2ccc([N+](=O)[O-])cc12`
Outgoing: 42.4 µM (inactive)

Incoming: Value lookup for GI50; key = `COc1cc(C)c(C)c(OC(=O)c2c(C)c(C)c(OC)c(C)c2OC)c1C`
Outgoing: 3.83 µM (inactive)

Incoming: Value lookup for GI50; key = CCCCN(C)CC(C(C)=O)C(c1ccccc1)c1c(O)c2ccccc2oc1=O (stereo not given)
Outgoing: > 100 µM (inactive)

Incoming: Value lookup for GI50; key = `CCOC(=O)c1cc(C#N)[nH]c1-c1ccsc1`
Outgoing: 25.6 µM (inactive)

Incoming: Value lookup for GI50; key = `CC(C)(C)c1ccc2c(c1)OP1(Oc3cccc4cccnc34)(O2)Oc2ccc(C(C)(C)C)cc2O1`
Outgoing: 2.43 µM (inactive)

Incoming: Value lookup for GI50; key = `Cn1c(=O)nc2n(-c3cc(C(F)(F)F)cc(C(F)(F)F)c3)c3ccccc3nc-2c1=O`
Outgoing: > 100 µM (inactive)

Incoming: Value lookup for GI50; key = CC(=O)OC1=C2CC[C@@H]3C(CC[C@@]4(C)C3CC[C@@H]4OC(C)=O)[C@@]2(C)CC(C#N)C1=O (stereo not given in full)
Outgoing: 22.6 µM (inactive)

Incoming: Value lookup for GI50; key = `O=C(O)CSC(NC(=O)C(C(F)(F)F)C(F)(F)F)(C(F)(F)F)C(F)(F)F`
Outgoing: > 100 µM (inactive)

====

tested on: MDA-MB-435; experiment: NCI tumour cell line growth inhibition, 48 h
Activity calls are given as the source filed them. Cut-off read from the data, not from the text of the source: active = GI50 up to about 1.1 µM and inactive = higher.
Listed here are compounds together with their documented GI50.

Example cases with answers are listed next.
> print(dat)
                                   compound   experimental.value
1  O=C1NC(=S)NC(=O)C1C(c1ccc(O)cc1)C1C(=O)NC(=S)NC1=O.c1ccncc1  > 100 µM (inactive)
2  CS(=O)(=O)N1CC(CCl)c2ccc(NO)cc21 (stereo not given)   16.6 µM (inactive)
3  CC1=NN(c2cccc(Cl)c2)C2(SCC(=O)N2c2nc3ccccc3s2)/C1=C\c1ccc(Cl)cc1 (stereo not given)   19.9 µM (inactive)
4  NC(Cc1c[nH]c2ccc([N+](=O)[O-])cc12)C(=O)O (stereo not given)  > 100 µM (inactive)
5  NN=C(CC(O)(C(F)(F)Cl)C(F)(F)Cl)CC(O)(C(F)(F)Cl)C(F)(F)Cl   > 10 µM (inactive)

Incoming: Value lookup for GI50; key = `CCCCOCCOC1=C(Cl)C(=O)c2c(O)ccc(O)c2C1=O`
Outgoing: 0.325 µM (active)

Incoming: Value lookup for GI50; key = `Cn1c2ccccc2c2c3c(=O)[nH][nH]c(=O)c3c3c4ccccc4n(C)c3c21`
Outgoing: > 100 µM (inactive)

====

system: SNB-75; assay: NCI tumour cell line growth inhibition, 48 h
Where a name gives a salt, the structure may show the parent alone. The source made the active and inactive calls. No stated cut-off is given here; in the data, active = GI50 up to about 1.1 µM and inactive = higher.
Thanks in advance; please answer with one of these: true (1) = active, false (0) = inactive

Solved cases below.
molecule	classification
CC(=O)O[C@H]1C(=O)[C@@]2(C)[C@H]([C@H](OC(=O)c3ccccc3)[C@]3(O)C[C@H](OC(=O)[C@H](O)[C@@H](NC(=O)c4ccccc4)c4cccc(N(C)C)c4)C(C)=C1C3(C)C)[C@]1(OC(C)=O)CO[C@@H]1C[C@@H]2O	true (1)
CN(Cc1cnc2nc(N)nc(N)c2n1)c1ccc(C(=O)NC(CO)CCCO)cc1 (stereo not drawn)	false (0)

Here is the next item to consider.
Incoming: Could you kindly confirm the outcome this assay logged for CN1[C@@H]2CC[C@H]1C[C@@H](OC(c1ccccc1)c1ccccc1)C2 [BENZTROPINE MESYLATE] ?
Outgoing: false (0)

====

Listed here are molecules together with their documented GI50.
tested on: SK-OV-3; assay: NCI tumour cell line growth inhibition, 48 h
The source made the active and inactive calls. No stated cut-off is given here; in the data, active = GI50 up to about 1.1 µM and inactive = higher.

Example cases with answers are listed next.
> print(dat)
                                   molecule   experimental.value
1                     Nc1nc(Cl)cc(NCCCCO)n1  > 100 µM (inactive)
2           CC(C)(CCc1nc2ccccc2[nH]1)C(=O)O  > 100 µM (inactive)
3  CCSc1s/c(=N/c2ccc(/N=c3\sc(C)c(SC)s3)cc2)sc1-c1ccc(C)cc1  > 100 µM (inactive)

Incoming: Any idea what GI50 came out for `Oc1cc(-c2cccs2)nc2cc3c(cc12)OCO3` on SK-OV-3?
Outgoing: 2.7 µM (inactive)

Incoming: Any idea what GI50 came out for `C[C@@H](O)C(=O)N1[C@@H]2CC3CC[C@]2(CS1(=O)=O)C3(C)C` on SK-OV-3?
Outgoing: > 100 µM (inactive)

Incoming: Any idea what GI50 came out for COc1nc(NC2OCC(O)C(O)C2O)c(NC2OCC(O)C(O)C2O)c(=O)n1C (stereo unspecified) on SK-OV-3?
Outgoing: > 100 µM (inactive)

====

tested on: SK-MEL-5; test: NCI tumour cell line growth inhibition, 48 h
Active and inactive are the calls of the source. No stated cut-off is given here; in the data, active = GI50 up to about 1.1 µM and inactive = higher.
Thanks in advance; please answer with one of these: active, inactive

compound	classification
O=C(c1ccccc1)N1C2CCC1C(C(F)(F)F)=C2C(F)(F)F	inactive
Cc1cc(S(=O)(=O)Nc2cc(N)n[nH]2)c(SCc2nc(N)nc(N(C)C)n2)cc1Cl	inactive
O=C(NCCCCCN1CCC2(CCCCC2)CC1)C(C1CCCCC1)C1CCCCC1	inactive
N/N=C(\N)Nc1cccc2ccccc12	inactive

Here is the next item to consider.
Incoming: Could you kindly confirm the outcome this assay logged for CCC[C@H](C)[C@H]1NC(=O)[C@@H](NC(=O)[C@@H](CC(C)C)N(C)C(=O)C2CCCN2C(=O)[C@H](C)O)[C@@H](C)OC(=O)[C@H](CC(C)C)N(C)C(=O)[C@@H]2CCCN2C(=O)[C@H](CC(C)C)NC(=O)[C@@H](C)C(=O)[C@H](C(C)C)OC(=O)C[C@@H]1O (stereo not given in full) ?
Outgoing: active

====

tested on: COLO 205; assay: NCI tumour cell line growth inhibition, 48 h
Calls of active or inactive are those of the source. Cut-off read from the data, not from the text of the source: active = GI50 up to about 1.1 µM and inactive = higher.
Thanks in advance; please answer with one of these: active, inactive

> print(dat)
                                  molecule  classification
1  CCCCOCCOC1=C(Cl)C(=O)c2c(O)ccc(O)c2C1=O          active

Incoming: Could you kindly confirm the outcome this assay logged for Cc1ccc(S(=O)(=O)NC(=O)NC(CC(N)=O)C(=O)O)cc1 (stereo not given) ?
Outgoing: inactive

Incoming: Could you kindly confirm the outcome this assay logged for `O=C1C(O)=C(Cl)C(=O)c2c(O)ccc(O)c21` ?
Outgoing: inactive

Incoming: Could you kindly confirm the outcome this assay logged for `O=C1c2cnccc2Cc2cccc3c2N1c1ccccc1S3` ?
Outgoing: inactive

Incoming: Could you kindly confirm the outcome this assay logged for `COc1cc(/C=C2\CCc3cc(OC)c(OC)cc3C2=O)cc(OC)c1` ?
Outgoing: inactive

Incoming: Could you kindly confirm the outcome this assay logged for COc1ccc2c3c(c(C(=O)O)oc13)C(CCC(=O)O)CC2 (stereo not given) ?
Outgoing: inactive

Incoming: Could you kindly confirm the outcome this assay logged for CC(C)c1ccc(/C=C2\CSCC3=C2N=C(S)NC3c2ccc(C(C)C)cc2)cc1 (stereo not given) ?
Outgoing: inactive

Incoming: Could you kindly confirm the outcome this assay logged for `CN(C)/C=N/S(=O)(=O)c1nn2c(C=O)c(-c3ccc(-c4ccc([N+](=O)[O-])cc4)o3)nc2s1` ?
Outgoing: inactive

Incoming: Could you kindly confirm the outcome this assay logged for `COCCOCc1nc(C#N)c(N)o1` ?
Outgoing: inactive

Incoming: Could you kindly confirm the outcome this assay logged for `COC(=O)c1c([N+](=O)[O-])ncn1[C@H]1OC[C@@H](OC(C)=O)[C@@H](OC(C)=O)[C@@H]1OC(C)=O` ?
Outgoing: inactive
